Test system: IL-2
RUN DESCRIPTION: IL-2 production of TCR/CD28 activated Jurkat T-cells after viral shDNA transduction
Assay type: cell-based
TEST CONTEXT: pLKO.1 shDNA, puromycin selected, TCR/CD28 activated 6 days post transduction, IL-2 normalized to viable cells
READOUT NAME: Average IL-2 % inhibition
Remember to follow the number with its unit.

Recorded results for 2 molecules are shown here.
cMAC BL5: shDNA construct in pLKO.1 lentiviral vector, target sequence gatttaagcctccctaaga (SEQ ID NO: 114) (nucleic acid) sense: CCGGGATTTAAGCCTCCCTAAGATTCAAGAGATCTTAGGGAGGCTTAAATCTTTTT antisense: AATTAAAAAGATTTAAGCCTCCCTAAGATCTCTTGAATCTTAGGGAGGCTTAAATC    72.2%
cMAC BL8: shDNA construct in pLKO.1 lentiviral vector, target sequence gtcaggtgccacatgagaa (SEQ ID NO: 123) (nucleic acid) sense: CCGGGTCAGGTGCCACATGAGAATTCAAGAGATTCTCATGTGGCACCTGACTTTTT antisense: AATTAAAAAGTCAGGTGCCACATGAGAATCTCTTGAATTCTCATGTGGCACCTGAC    8.03%

Now for a further molecule.
Using the record for cMAC MB4: shDNA construct in pLKO.1 lentiviral vector, target sequence ccttgggcuggcactcttatt (SEQ ID NO: 129) (nucleic acid) sense: CCGGCCTTGGGCUGGCACTCTTATTCAAGAGATAAGAGTGCCAGCCCAAGGTTTTT antisense: AATTAAAAACCTTGGGCTGGCACTCTTATCTCTTGAATAAGAGTGCCAGCCCAAGG , state its measured Average IL-2 % inhibition.
78.9%
